Test system: β-Glucosidase derived from A. niger
ASSAY PROTOCOL: Reactivity toward various isoflavone glycosides (HPLC)
Format: biochemical, Aspergillus niger
Design: unit not given here
TEST SETTINGS: Reaction time 6 h; 55 °C, pH 4.0
RESULT TYPE: aglycon

| MOLECULE | aglycon |
| --- | --- |
| COc1cc2c(=O)c(-c3ccc(O)cc3)coc2cc1O[C@@H]1O[C@H](COC(C)=O)[C@@H](O)[C@H](O)[C@H]1O [acetylglycitin, 6″-O-acetylglycitin] | 1.9 |

A = O=c1c(-c2ccc(O)cc2)coc2cc(O[C@@H]3O[C@H](CO)[C@@H](O)[C@H](O)[C@H]3O)cc(O)c12 [genistin]
B = COc1cc2c(=O)c(-c3ccc(O)cc3)coc2cc1O[C@@H]1O[C@H](COC(=O)CC(=O)O)[C@@H](O)[C@H](O)[C@H]1O [malonylglycitin, 6″-O-malonylglycitin]
IN: I'd appreciate it if you could identify which of A and B has the greater aglycon. Kindly give the label for the entry you pick.
OUT: A

1 = COc1cc2c(=O)c(-c3ccc(O)cc3)coc2cc1O[C@@H]1O[C@H](CO)[C@@H](O)[C@H](O)[C@H]1O [glycitin]
2 = O=C(O)CC(=O)OC[C@H]1O[C@@H](Oc2ccc3c(=O)c(-c4ccc(O)cc4)coc3c2)[C@H](O)[C@@H](O)[C@@H]1O [malonyldaidzin, 6″-O-malonyldaidzin]
3 = CC(=O)OC[C@H]1O[C@@H](Oc2cc(O)c3c(=O)c(-c4ccc(O)cc4)coc3c2)[C@H](O)[C@@H](O)[C@@H]1O [acetylgenistin, 6″-O-acetylgenistin]
IN: Let's sort these by aglycon, smallest first. Go ahead? Provide the ranking by listing each label in its place in the requested order.
OUT: 3, 2, 1

====

Test system: Crude diglycosidase
ASSAY PROTOCOL: Examination of substrate concentration in the conversion into isoflavone aglycons by diglycosidase using soybean materials;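 note: percent of the isoflavone family total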
Type: biochemical, Penicillium multicolor IAM7153
TEST SETTINGS: defatted soybean, substrate concentration 10%, heat treatment of enzyme no, reaction time 3 h
RESULT TYPE: Decomposition efficiency: ratio of each glycoside/aglycon within its isoflavone family (%)

A = COc1cc2c(=O)c(-c3ccc(O)cc3)coc2cc1O [glycitein]
B = COc1cc2c(=O)c(-c3ccc(O)cc3)coc2cc1O[C@@H]1O[C@H](COC(=O)CC(=O)O)[C@@H](O)[C@H](O)[C@H]1O [malonylglycitin, 6″-O-malonylglycitin]
IN: Quick one: lower Decomposition efficiency: ratio of each glycoside/aglycon within its isoflavone family, A or B ? Kindly give the label for the entry you pick.
OUT: B
(B: 36.6%, A: 63.4%)

====

Test system: β-Glucosidase derived from almond
ASSAY PROTOCOL: Reactivity toward various isoflavone glycosides (HPLC)
Type: biochemical
Design: unit not given here
TEST SETTINGS: Reaction time 3 h; 55 °C, pH 4.0
RESULT TYPE: glucoside

| COMPOUND | TESTED TARGET | glucoside |
| --- | --- | --- |
| CC(=O)OC[C@H]1O[C@@H](Oc2ccc3c(=O)c(-c4ccc(O)cc4)coc3c2)[C@H](O)[C@@H](O)[C@@H]1O [acetyldaidzin, 6″-O-acetyldaidzin] | β-Glucosidase derived from almond | 99.4 |
| O=C(O)CC(=O)OC[C@H]1O[C@@H](Oc2ccc3c(=O)c(-c4ccc(O)cc4)coc3c2)[C@H](O)[C@@H](O)[C@@H]1O [malonyldaidzin, 6″-O-malonyldaidzin] | β-Glucosidase derived from almond | 100 |
| COc1cc2c(=O)c(-c3ccc(O)cc3)coc2cc1O[C@@H]1O[C@H](COC(=O)CC(=O)O)[C@@H](O)[C@H](O)[C@H]1O [malonylglycitin, 6″-O-malonylglycitin] | β-Glucosidase derived from almond | 100 |

====

Tested on: Crude diglycosidase
ASSAY PROTOCOL: Examination of pH in the conversion into isoflavone aglycons by diglycosidase using soybean materials
Format: biochemical, Penicillium multicolor IAM7153
Set-up: concentration or dose not given beside the values
TEST SETTINGS: pH5.4; heat treatment of enzyme: no; reaction time 1 h
RESULT TYPE: Decomposition efficiency of daidzin family in defatted soybean (%)

| SMILES STRUCTURE | READOUT VALUE |
| --- | --- |
| O=c1c(-c2ccc(O)cc2)coc2cc(O)ccc12 | 55.8 |
| O=C(O)CC(=O)OC[C@H]1O[C@@H](Oc2ccc3c(=O)c(-c4ccc(O)cc4)coc3c2)[C@H](O)[C@@H](O)[C@@H]1O | 44.2 |

====

Tested on: Crude diglycosidase
ASSAY PROTOCOL: Examination of pH in the conversion into isoflavone aglycons by diglycosidase using soybean materials
Format: biochemical, Penicillium multicolor IAM7153
Set-up: concentration or dose not given beside the values
TEST SETTINGS: pH6.6; heat treatment of enzyme: no; reaction time 3 h
RESULT TYPE: Decomposition efficiency of genistin family in defatted soybean (%)

| SMILES STRUCTURE | READOUT VALUE |
| --- | --- |
| O=c1c(-c2ccc(O)cc2)coc2cc(O)cc(O)c12 | 51.4 |

a = CC(=O)OC[C@H]1O[C@@H](Oc2cc(O)c3c(=O)c(-c4ccc(O)cc4)coc3c2)[C@H](O)[C@@H](O)[C@@H]1O
b = O=C(O)CC(=O)OC[C@H]1O[C@@H](Oc2cc(O)c3c(=O)c(-c4ccc(O)cc4)coc3c2)[C@H](O)[C@@H](O)[C@@H]1O
IN: I'd appreciate it if you could identify which of a and b has the greater Decomposition efficiency of genistin family in defatted soybean. Kindly give the label for the entry you pick.
OUT: b
(b: 48.3%, a: 0.3%)

====

Tested on: Crude diglycosidase
ASSAY PROTOCOL: Examination of pH in the conversion into isoflavone aglycons by diglycosidase using soybean materials
Type: biochemical, Penicillium multicolor IAM7153
TEST SETTINGS: pH3, heat treatment of enzyme no, reaction time 3 h, 55° C.
Description: A substrate solution of 450 μL was prepared by suspending 50 mg of each soybean material (roasted soy flour (manufactured by Fuji Shokuryo K.K.), soymilk (manufactured by Gitoh Shokuhin K.K.), defatted soybean (manufactured by Fuji Seiyu K.K.), concentrated soybean protein (manufactured by Fuji Seiyu K.K.)), and adjusting the pH to 2 to 11 with hydrochloric acid or sodium hydroxide. […]
RESULT TYPE: Decomposition efficiency of daidzin family in roasted soy flour
I'd appreciate a reply containing only the number, no unit.

| SMILES STRUCTURE | READOUT VALUE |
| --- | --- |
| O=c1c(-c2ccc(O)cc2)coc2cc(O)ccc12 | 60.4 |

IN: Read the entry CC(=O)OC[C@H]1O[C@@H](Oc2ccc3c(=O)c(-c4ccc(O)cc4)coc3c2)[C@H](O)[C@@H](O)[C@@H]1O and write its reported Decomposition efficiency of daidzin family in roasted soy flour.
OUT: 39.6

====

Tested on: Diglycosidase derived from P. multicolor
ASSAY PROTOCOL: Reactivity toward various isoflavone glycosides (HPLC)
Assay type: biochemical, Penicillium multicolor
Parameters: unit not given here
TEST SETTINGS: Reaction time 3 h; 55 °C, pH 4.0
RESULT TYPE: aglycon

Please review the following examples before continuing.
| SMILES STRUCTURE | aglycon |
| --- | --- |
| COc1cc2c(=O)c(-c3ccc(O)cc3)coc2cc1O[C@@H]1O[C@H](COC(=O)CC(=O)O)[C@@H](O)[C@H](O)[C@H]1O | 84.5 |
| O=C(O)CC(=O)OC[C@H]1O[C@@H](Oc2ccc3c(=O)c(-c4ccc(O)cc4)coc3c2)[C@H](O)[C@@H](O)[C@@H]1O | 60.1 |
| COc1cc2c(=O)c(-c3ccc(O)cc3)coc2cc1O[C@@H]1O[C@H](CO)[C@@H](O)[C@H](O)[C@H]1O | 99.8 |

A = O=c1c(-c2ccc(O)cc2)coc2cc(O[C@@H]3O[C@H](CO)[C@@H](O)[C@H](O)[C@H]3O)cc(O)c12
B = COc1cc2c(=O)c(-c3ccc(O)cc3)coc2cc1O[C@@H]1O[C@H](COC(C)=O)[C@@H](O)[C@H](O)[C@H]1O
IN: Quick one: lower aglycon, A or B ? Kindly give the label for the entry you pick.
OUT: A

====

System: β-Glucosidase derived from almond
ASSAY PROTOCOL: Reactivity toward various isoflavone glycosides (HPLC)
Type: biochemical
Parameters: unit not given here
TEST SETTINGS: Reaction time 6 h; 55 °C, pH 4.0
RESULT TYPE: glucoside

| SMILES STRUCTURE | glucoside |
| --- | --- |
| COc1cc2c(=O)c(-c3ccc(O)cc3)coc2cc1O[C@@H]1O[C@H](COC(C)=O)[C@@H](O)[C@H](O)[C@H]1O | 100 |
| COc1cc2c(=O)c(-c3ccc(O)cc3)coc2cc1O[C@@H]1O[C@H](CO)[C@@H](O)[C@H](O)[C@H]1O | 98.1 |
| O=c1c(-c2ccc(O)cc2)coc2cc(O[C@@H]3O[C@H](CO)[C@@H](O)[C@H](O)[C@H]3O)ccc12 | 88.7 |
| CC(=O)OC[C@H]1O[C@@H](Oc2ccc3c(=O)c(-c4ccc(O)cc4)coc3c2)[C@H](O)[C@@H](O)[C@@H]1O | 99.4 |
